B1: KRT34 (parent)
chain: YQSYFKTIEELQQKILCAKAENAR

Variants of: B1
assay-procedure: protein stability index of a GFP-peptide fusion (GPS, HEK-293T) (PSI 1-6); higher = more stable;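 further: lentivirally expressed fusions sorted by FACS into six bins by GFP to DsRed ratio, PSI derived from sequencing read proportions per bin multiplied by bin number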
applied-conditions: c terminus: a fixed tail appended
readout-name: protein stability index

// known answers, use as guide
variant-string: K19W
readout-name: protein stability index
result: 2.29
//
variant-string: E21D
readout-name: protein stability index
result: 1.74
//
variant-string: T7Y
readout-name: protein stability index
result: 2.24
//
variant-string: S3A
readout-name: protein stability index
result: 2.69
//
variant-string: L11H
readout-name: protein stability index
result: 1.55

Entry under test: A20E . Its protein stability index was 2.14

Entry under test: A18L . Its protein stability index was 2.04

Entry under test: F5Y . Its protein stability index was 1.62
